Molecular target: T1, recombinant human CD63 second extracellular domain (Ala 103-Val 203) fused with a polyhistidine tag at the … (human, UniProt P08962 103-203)
T1 construct: range 103-203; Bought from Creative BioMart; also called human His-tagged CD63; soluble CD63
T1 sequence (looked up): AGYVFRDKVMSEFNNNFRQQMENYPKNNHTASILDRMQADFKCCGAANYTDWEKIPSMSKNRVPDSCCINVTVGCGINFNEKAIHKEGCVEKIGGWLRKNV
Assay: BLI (Octet HTX), IgG on anti-human Fc sensors, His-tagged CD63 as analyte, 30 C
endpoint: Kd (nM)
Reply with just the number (in nM).

binder	measured
IgG1-CD63 affinity variant LY51H (antibody, V domains shown, As m1 with one histidine substitution in the light chain) VH: EVQLQQSGPELVKPGASVKMSCKASGYTFTSYVMHWVRQTPGQGLEWIGYITPYNDGTKYNEKFKGKATLTSDKSSSTAYMELSSLTSEDSAVYYCVGGDNYYYAMDYWGQGTSVTVSA VL: NIMVTQSPSSLAVSAGEKVTMSCKSSQSVLHSSNQKNYLAWYQQKPGQSPKLLIYWASTRVSGVPDRFTGSGSGTDFTLTISRVQAEDLAVYYCHQYFSSFTFGSGTKLEIKR	20
IgG1-CD63N74H (antibody, V domains shown, also called anti-CD63-N74H) VH: EVQLQQSGPELVKPGASVKMSCKASGYTFTSYVMHWVRQTPGQGLEWIGYITPYHDGTKYNEKFKGKATLTSDKSSSTAYMELSSLTSEDSAVYYCVGGDNYYYAMDYWGQGTSVTVSA VL: NIMVTQSPSSLAVSAGEKVTMSCKSSQSVLYSSNQKNYLAWYQQKPGQSPKLLIYWASTRVSGVPDRFTGSGSGTDFTLTISRVQAEDLAVYYCHQYFSSFTFGSGTKLEIKR	4.1

For the binder wild type IgG1-CD63 (antibody, V domains shown, Mouse 2192 variable domains on human IgG1 constant domains (heavy chain with K409R or F405L) and a human light chain constant domain; also called wt IgG1-CD63; WT) VH: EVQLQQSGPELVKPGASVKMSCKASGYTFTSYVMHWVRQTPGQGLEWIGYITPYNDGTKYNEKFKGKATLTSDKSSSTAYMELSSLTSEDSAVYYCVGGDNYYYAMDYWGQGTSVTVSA VL: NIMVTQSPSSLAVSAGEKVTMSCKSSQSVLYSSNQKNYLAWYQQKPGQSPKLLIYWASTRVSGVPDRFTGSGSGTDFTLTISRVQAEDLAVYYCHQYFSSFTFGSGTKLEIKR , give its measured Kd value.
0.54

For the binder IgG1-CD63 affinity variant LQ47 (antibody, V domains shown, As m1 with one histidine substitution in the light chain) VH: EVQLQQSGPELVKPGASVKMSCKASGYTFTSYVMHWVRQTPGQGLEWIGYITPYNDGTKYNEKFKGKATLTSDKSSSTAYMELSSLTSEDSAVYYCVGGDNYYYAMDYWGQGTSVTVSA VL: NIMVTQSPSSLAVSAGEKVTMSCKSSHSVLYSSNQKNYLAWYQQKPGQSPKLLIYWASTRVSGVPDRFTGSGSGTDFTLTISRVQAEDLAVYYCHQYFSSFTFGSGTKLEIKR , give its measured Kd value.
0.37

For the binder IgG1-CD63 affinity variant T71H (antibody, V domains shown) VH: EVQLQQSGPELVKPGASVKMSCKASGYTFTSYVMHWVRQTPGQGLEWIGYIHPYNDGTKYNEKFKGKATLTSDKSSSTAYMELSSLTSEDSAVYYCVGGDNYYYAMDYWGQGTSVTVSA VL: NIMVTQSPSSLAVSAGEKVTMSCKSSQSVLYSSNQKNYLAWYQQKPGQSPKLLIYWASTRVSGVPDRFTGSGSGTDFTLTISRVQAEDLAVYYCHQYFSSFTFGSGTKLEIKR , give its measured Kd value.
7.3

For the binder IgG1-CD63 affinity variant Y121H (antibody, V domains shown, As m1 with one histidine substitution) VH: EVQLQQSGPELVKPGASVKMSCKASGYTFTSYVMHWVRQTPGQGLEWIGYITPYNDGTKYNEKFKGKATLTSDKSSSTAYMELSSLTSEDSAVYYCVGGDNHYYAMDYWGQGTSVTVSA VL: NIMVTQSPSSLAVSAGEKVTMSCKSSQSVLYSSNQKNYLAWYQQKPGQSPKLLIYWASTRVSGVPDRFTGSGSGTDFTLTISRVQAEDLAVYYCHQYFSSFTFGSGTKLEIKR , give its measured Kd value.
20

For the binder IgG1-CD63 affinity variant Y46 (antibody, V domains shown, As m1 with one histidine substitution) VH: EVQLQQSGPELVKPGASVKMSCKASGHTFTSYVMHWVRQTPGQGLEWIGYITPYNDGTKYNEKFKGKATLTSDKSSSTAYMELSSLTSEDSAVYYCVGGDNYYYAMDYWGQGTSVTVSA VL: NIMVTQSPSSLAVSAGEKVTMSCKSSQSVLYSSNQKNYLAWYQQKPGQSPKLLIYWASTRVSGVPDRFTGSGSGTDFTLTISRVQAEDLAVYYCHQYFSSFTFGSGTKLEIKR , give its measured Kd value.
0.78

For the binder IgG1-CD63 affinity variant Y79H (antibody, V domains shown, As m1 with one histidine substitution) VH: EVQLQQSGPELVKPGASVKMSCKASGYTFTSYVMHWVRQTPGQGLEWIGYITPYNDGTKHNEKFKGKATLTSDKSSSTAYMELSSLTSEDSAVYYCVGGDNYYYAMDYWGQGTSVTVSA VL: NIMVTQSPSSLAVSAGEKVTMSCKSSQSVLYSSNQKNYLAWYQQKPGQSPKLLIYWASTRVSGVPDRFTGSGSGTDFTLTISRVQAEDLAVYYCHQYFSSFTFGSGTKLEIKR , give its measured Kd value.
0.67

For the binder IgG1-CD63 affinity variant LV49H (antibody, V domains shown, As m1 with one histidine substitution in the light chain) VH: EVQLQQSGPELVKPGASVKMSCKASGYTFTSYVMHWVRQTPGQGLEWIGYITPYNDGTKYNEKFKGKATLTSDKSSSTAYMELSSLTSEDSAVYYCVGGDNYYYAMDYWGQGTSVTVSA VL: NIMVTQSPSSLAVSAGEKVTMSCKSSQSHLYSSNQKNYLAWYQQKPGQSPKLLIYWASTRVSGVPDRFTGSGSGTDFTLTISRVQAEDLAVYYCHQYFSSFTFGSGTKLEIKR , give its measured Kd value.
27

For the binder IgG1-CD63 affinity variant LS52 (antibody, V domains shown, As m1 with one histidine substitution in the light chain) VH: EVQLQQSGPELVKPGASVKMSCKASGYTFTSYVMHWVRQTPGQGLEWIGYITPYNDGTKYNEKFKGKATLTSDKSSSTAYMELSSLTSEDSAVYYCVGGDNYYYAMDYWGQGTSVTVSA VL: NIMVTQSPSSLAVSAGEKVTMSCKSSQSVLYHSNQKNYLAWYQQKPGQSPKLLIYWASTRVSGVPDRFTGSGSGTDFTLTISRVQAEDLAVYYCHQYFSSFTFGSGTKLEIKR , give its measured Kd value.
0.36
